Attribution: patent US12552748B2

Please respond with reported LogP for every item in the list.
Assay: physchem
Type: physicochemical
Marks after values point to notes of the source that are not given here.

For this molecule ( Cc1cccc(Oc2cnc(C)cc2C(=O)NCC(F)c2ccc(C)cc2Cl)c1 (racemic) ), measured LogP is 3.96^[a]

For this molecule ( C#Cc1c(Cl)ncc(Oc2cccc(C(F)(F)F)c2)c1C(=O)NCC(F)(F)c1ccc(C)cc1C ), measured LogP is 5.74^[a]

For this molecule ( Cc1ccc(CCNC(=O)c2cc(Cl)ncc2Oc2cccc([N+](=O)[O-])c2)c(C)c1 ), measured LogP is 4.08^[a]

For this molecule ( O=C(NCC(F)(F)c1ccc(Br)cc1Cl)c1cc(Cl)ncc1Oc1cccc(C2CC2)c1F ), measured LogP is 5.31^[a]

====

Assay: physchem
Type: physicochemical
Marks after values point to notes of the source that are not given here.
Please respond with reported LogP for every item in the list.

For this molecule ( N#Cc1nc(Cl)cc(C(=O)NCC(F)(F)c2ccc(Cl)cc2)c1Oc1cccc(C(F)(F)F)c1 ), measured LogP is 4.39^[a]

For this molecule ( Cc1ccc(CCNC(=O)c2cc(C(F)(F)F)ncc2Oc2cccc(C3CC3)c2F)c(C)c1 ), measured LogP is 5.38^[a]

For this molecule ( O=C(O)c1cc(Cl)ncc1Oc1cccc(C2CC2)c1 ), measured LogP is 2.87^[a]

For this molecule ( CC(=O)c1ccc(C(F)(F)CNC(=O)c2cc(Cl)ncc2Oc2cccc(C(F)F)c2)c(Cl)c1 ), measured LogP is 3.81^[a]

====

Assay: physchem
Type: physicochemical
Parameter: chromatographic logP

For this molecule ( C=C(OCC)c1cc(C(=O)OC)c(Oc2cccc(C(F)(F)F)c2)cn1 [Compound 1-013] ), measured chromatographic logP is 4.7

For this molecule ( O=C(NCC(F)(F)c1ccc(C2CCCC2)cc1Cl)c1cc(Cl)ncc1Oc1cccc(C(F)F)c1 [Compound I-124] ), measured chromatographic logP is 5.5

For this molecule ( Cc1ccc(C(F)(F)CNC(=O)c2c(Br)cnc(Cl)c2F)c(C)c1 [Compound 3-005] ), measured chromatographic logP is 3.81

For this molecule ( Cc1ccc(CCNC(=S)c2cc(Cl)ncc2Oc2cccc(C(F)(F)F)c2)c(C)c1 [Compound I-115] ), measured chromatographic logP is 5.42

For this molecule ( Cc1ccc(CCNC(=O)c2cc(Cl)nc(F)c2Oc2cccc(C(F)(F)F)c2)c(C)c1 [Compound I-018] ), measured chromatographic logP is 4.95

For this molecule ( CC(=O)c1cc(C(=O)O)c(Oc2cccc(C(F)(F)F)c2)cn1 [Compound 1-011] ), measured chromatographic logP is 2.54

For this molecule ( Cc1ccc(CCNC(=O)c2cc(Cl)ncc2Oc2ccc3c(c2)OC(F)(F)O3)c(C)c1 [Compound I-140] ), measured chromatographic logP is 4.82

For this molecule ( Cc1ccc(C(F)(F)CNC(=O)c2c(Oc3cccc(C(F)(F)F)c3)cnc(Cl)c2-n2cccn2)c(C)c1 [Compound I-167] ), measured chromatographic logP is 4.51

For this molecule ( Cc1ccc(C(F)(F)CNC(=O)c2c(Oc3cccc(C(F)(F)F)c3)cnc(Cl)c2C)c(C)c1 [Compound I-019] ), measured chromatographic logP is 4.64

For this molecule ( CC(=O)c1cc(C(=O)NCCc2ccc(C)cc2C)c(Oc2cccc(C(F)(F)F)c2)cn1 [Compound I-087] ), measured chromatographic logP is 4.47

For this molecule ( COC(=O)c1cc(C(C)=O)ncc1Oc1cccc(C(F)(F)F)c1 [Compound 1-012] ), measured chromatographic logP is 3.59

For this molecule ( Cc1ccc(CCNC(=O)c2cc(Cl)ncc2Br)c(C)c1 [Compound 3-001] ), measured chromatographic logP is 3.4

For this molecule ( O=C(O)c1cc(Cl)nc(F)c1Oc1cccc(C(F)(F)F)c1 [Compound 1-014] ), measured chromatographic logP is 2.95

For this molecule ( Cc1ccc(C(F)(F)CNC(=O)c2c(Oc3cccc(C(F)(F)F)c3)cnc(Cl)c2I)c(C)c1 [Compound I-057] ), measured chromatographic logP is 4.8

For this molecule ( Cc1ccc(CCNC(=O)c2cc(NC3CC3)ncc2Oc2cccc(C(F)(F)F)c2)c(C)c1 [Compound I-050] ), measured chromatographic logP is 3.77

For this molecule ( CCc1ccc(C(F)(F)CNC(=O)c2cc(Cl)ncc2Oc2cccc(C(F)(F)F)c2)c(Cl)c1 [Compound I-034] ), measured chromatographic logP is 4.98
